meta.source: patent US20240343803A1

- assayedSystem: T1, Fusion protein of extracellular domain of human TIGIT and His-tag (human TIGIT ECD-his) (human)
- T1 chain: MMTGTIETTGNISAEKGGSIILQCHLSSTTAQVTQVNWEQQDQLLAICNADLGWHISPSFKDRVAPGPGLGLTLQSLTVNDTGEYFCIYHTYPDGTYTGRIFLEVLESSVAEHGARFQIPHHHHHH
- testMethodNotes: BIAcore
Assign pKd to each entry below.
Give bare numbers, as −log10 of the molar value.

// worked examples, pKd included
1) TIGIT-070-H1L1 (antibody, V domains shown, Humanized anti-TIGIT antibody) VH: EVQLVQSGAEVKKPGASVKVSCKASGYTFTNYYMHWVRQAPGQRLEWMGRIDPDSGGSKYNEKFKSRVTITVDKSASTAYMELSSLRSEDTAVYYCAREGHYGFYSDYWGQGTTVTVSS VL: DIQMTQSPSSLSASVGDRVTITCRVSENIYSYLAWYQQKPGKSPKLLIYNAKTLAEGVPSRFSGSGSGTDFTLTISSLQPEDFATYYCQHHYGNPLTFGPGTKVDIK ... 10.23
2) TIGIT-002-H3L3 (antibody, V domains shown, Humanized anti-TIGIT antibody) VH: EVQLQESGPGLVKPSETLSLTCAVSGYSITSDSWNWIRQPPGKKLEWMGYISYSGNTYYNPSLKSRITISRDTSKNQFSLKLSSVTAADTAVYYCARLDFSNYGGAVDYWGQGTTVTVSS VL: DIVMTQSPDSLAVSLGERATINCKASQNVRTAVAWYQQKPGQSPKLMIYSASYRYTGVPDRFSGSGSGTDFTLTISSLQAEDVAVYYCQQYYTTPWTFGGGTKVEIK ... 9.73
3) TIGIT-006-H3L1 (antibody, V domains shown, Humanized anti-TIGIT antibody) VH: EVQLQESGPGLVKPSETLSLTCAVSGYSMTSDYWNWIRQPPGKKLEWIGYISYSGRTYYNPSLKSRVTISRDTSKNQFSLKLSSVTAADTAVYYCARGDYSNYGGAMYDWGQGTTVTVSS VL: DIVMTQTPLSLSVTPGQPASISCRASQGVSTTIAWYLQKPGQSPQLLIYSASYRYTGVPDRFSGSGSGTDFTLKISRVEAEDVGVYYCQQYYSSPFTFGGGTKVEIK ... 9.15
4) TIGIT-002-H4L3 (antibody, V domains shown, Humanized anti-TIGIT antibody) VH: EVQLQESGPGLVKPSETLSLTCAVSGYSITSDSWNWIRQPPGKKLEYIGYISYSGNTYYNPSLKSRVTISRDTSKNQFSLKLSSVTAADTAVYYCARLDFSNYGGAVDYWGQGTTVTVSS VL: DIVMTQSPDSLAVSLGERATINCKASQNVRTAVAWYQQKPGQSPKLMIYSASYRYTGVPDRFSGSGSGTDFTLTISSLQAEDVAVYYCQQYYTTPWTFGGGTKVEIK ... 10.27

Req: For the binder TIGIT-005-H2L1 (antibody, V domains shown, Humanized anti-TIGIT antibody) VH: EVQLVQSGAEVKKPGASVKVSCKASGYAFTNYLIEWVRQAPGQRLEWMGVINPGSGGTNYKEKFKGRVTITADKSSSTAYMELSSLRSEDTAVYYCARGEYFFFDYWGQGTTVTVSS VL: DIVMTQSPDSLAVSLGERATINCKASQHVSNGVAWYQHKPGQSPKLLIYSASYRYTGVPDRFSGSGSGTDFTLTISSLQAEDVAVYYCQQHYNTPHTFGGGTKVEIK , give its reported pKd.
Resp: 10.42
